Target: DRB1*1201 (Homo sapiens, UniProt P01903+P01911, A100R/A169T/D57E/D86V/F55L/H45Y/K41T/L162R/M171V/P40S/Q125H/Q178H/Q39Y/Q99D/R42G/S66L/T262R/V114A/V67L/W38E/Y59H/Y61H/Y89S)
Assay: biochemical
pIC50: −log10 of the molar value.

compound	value-comparator	pIC50
CC[C@H](C)[C@H](NC(=O)[C@H](CS)NC(=O)[C@H](Cc1c[nH]cn1)NC(=O)[C@H](C)NC(=O)[C@H](C)NC(=O)[C@@H](NC(=O)[C@H](CC(C)C)NC(=O)[C@@H](NC(=O)[C@H](Cc1c[nH]c2ccccc12)NC(=O)[C@H](CCC(N)=O)NC(=O)[C@@H]1CCCN1C(=O)[C@@H](N)Cc1c[nH]cn1)C(C)C)[C@@H](C)O)C(=O)N[C@@H](CCCNC(=N)N)C(=O)N[C@@H](CC(N)=O)C(=O)N[C@@H](CCCCN)C(=O)O [Peptide 68.0064]	=	5.24
CC(C)C[C@H](NC(=O)[C@H](CC(=O)O)NC(=O)[C@@H](NC(=O)[C@@H](NC(=O)[C@H](CCC(=O)O)NC(=O)[C@@H]1CCCN1C(=O)[C@H](CCC(N)=O)NC(=O)[C@H](CC(C)C)NC(=O)[C@H](CC(=O)O)NC(=O)[C@@H](N)CC(C)C)[C@@H](C)O)[C@@H](C)O)C(=O)N[C@@H](Cc1ccc(O)cc1)C(=O)N[C@@H](CS)C(=O)N[C@@H](Cc1ccc(O)cc1)C(=O)N[C@@H](CCC(=O)O)C(=O)N[C@@H](CCC(N)=O)C(=O)O [Peptide 1543.04]	<	4.70
CC[C@H](C)[C@H](NC(=O)[C@H](CO)NC(=O)[C@H](CO)NC(=O)[C@H](CC(=O)O)NC(=O)[C@H](C)NC(=O)[C@H](CC(N)=O)NC(=O)[C@@H](NC(=O)[C@H](Cc1ccc(O)cc1)NC(=O)[C@H](C)NC(=O)[C@@H](NC(=O)CNC(=O)[C@H](CCCNC(=N)N)NC(=O)[C@@H](N)CCC(=O)O)C(C)C)[C@@H](C)CC)C(=O)N[C@@H](CCC(=O)O)C(=O)NCC(=O)O [Peptide 68.0109]	<	4.70
CC[C@H](C)[C@H](NC(=O)[C@H](Cc1ccccc1)NC(=O)[C@H](C)NC(=O)[C@H](CCCNC(=N)N)NC(=O)[C@H](CCC(=O)O)NC(=O)[C@H](CC(C)C)NC(=O)[C@H](Cc1ccccc1)NC(=O)[C@H](CCSC)NC(=O)[C@H](CC(C)C)NC(=O)[C@H](CCC(N)=O)NC(=O)[C@@H](N)CC(=O)O)C(=O)N[C@@H](CC(=O)O)C(=O)N1CCC[C@H]1C(=O)N[C@@H](CC(C)C)C(=O)NCC(=O)O [Peptide 68.0181]	=	6.84
CC[C@H](C)[C@H](NC(=O)[C@H](CCC(N)=O)NC(=O)[C@@H](NC(=O)[C@H](Cc1ccccc1)NC(=O)[C@H](CC(N)=O)NC(=O)[C@H](Cc1ccc(O)cc1)NC(=O)[C@H](CC(C)C)NC(=O)[C@H](Cc1ccccc1)NC(=O)[C@@H](N)CCCCN)[C@@H](C)O)C(=O)N1CCC[C@H]1C(=O)N[C@@H](Cc1c[nH]cn1)C(=O)N[C@@H](CC(C)C)C(=O)N[C@@H](C)C(=O)NCC(=O)N[C@H](C(=O)O)[C@@H](C)O [Peptide 68.0087]	=	5.91
